# Organism: Mus musculus
# assay_method_text: Number of animals survived after 30 days of treatment; 0/6.
# Format: functional
attribute_measured: No. of animals survived

>>> numeric_readout("CC(CO)(CO)NCc1cc2ccc3ccccc3c2c2ccccc12")
0
>>> numeric_readout("CC(CO)(CO)NCc1cc2c3c(cccc3c1)-c1ccccc1-2.Cl")
0
>>> numeric_readout("CC(CO)(CO)NCc1ccc2c(ccc3ccccc32)c1.Cl")
0
>>> numeric_readout("CC(CO)(CO)NCc1cccc2c1ccc1ccccc12.Cl")
0
>>> numeric_readout("CC(CO)(CO)NCc1ccc2c3cccc4cccc(c5cccc1c52)c43.Cl")
0
>>> numeric_readout("CC(CO)(CO)NCc1ccc2ccc3c4ccccc4ccc3c2c1")
0
>>> numeric_readout("CC(CO)(CO)NCc1ccc2ccc3cccc4ccc1c2c34.Cl")
0
>>> numeric_readout("CC(CO)(CO)NCc1c2ccccc2cc2ccccc12.Cl")
0
>>> numeric_readout("CC(CO)(CO)NCc1ccc2cccc3c2c1-c1ccccc1-3.Cl")
0
>>> numeric_readout("CC(CO)(CO)NCc1cccc2c3ccccc3c3ccccc3c12.Cl")
0
>>> numeric_readout("CC(CO)(CO)NCc1ccc2c(ccc3cc4ccccc4cc32)c1")
0
